- EXPERIMENT: Clearance in Zucker fa/fa rat at 5.2 mg/kg, iv
- Type: ADME, organism-based
- Design: dose 5.2 mg/kg, route intravenous
- COND: in vivo
QUANTITY_NAME: clearance

INSERT INTO results (smiles, test_value) VALUES
  ('CCCCn1c(-c2ccc3nn(CCC)c(Cc4ccc(-c5ccccc5-c5nn[nH]n5)cc4)c3c2)nc2ccccc21', '11 mL/min/kg');

----------
- TARGET_UNDER_TEST: Type-1 angiotensin II receptor (Homo sapiens)
- Sequence (P30556 whole entry): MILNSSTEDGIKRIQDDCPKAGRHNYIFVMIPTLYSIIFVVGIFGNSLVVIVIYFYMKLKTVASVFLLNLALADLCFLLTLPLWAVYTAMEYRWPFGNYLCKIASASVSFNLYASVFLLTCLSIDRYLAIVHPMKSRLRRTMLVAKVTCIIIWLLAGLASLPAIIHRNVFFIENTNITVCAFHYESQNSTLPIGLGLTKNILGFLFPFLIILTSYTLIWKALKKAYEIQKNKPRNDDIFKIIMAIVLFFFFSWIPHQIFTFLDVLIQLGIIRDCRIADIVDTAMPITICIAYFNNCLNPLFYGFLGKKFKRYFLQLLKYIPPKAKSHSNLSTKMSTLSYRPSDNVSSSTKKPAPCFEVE
- EXPERIMENT: Antagonist activity at human AT1 receptor expressed in CHO cells measured after overnight incubation by luciferase reporter gene assay
pIC50: −log10 of the molar value.
QUANTITY_NAME: pIC50

INSERT INTO assay_data (compound, value_prefix, test_value) VALUES
  ('CCCc1nn2ccc(-c3nc4ccccc4n3CCC)cc2c1Cc1ccc(-c2ccccc2-c2nnn[nH]2)cc1', '=', 7.64),
  ('CCCc1nc2cc(C(=O)NC(CC)c3ccccc3)ccc2n1Cc1ccc(-c2ccccc2C(=O)O)cc1 (stereo not drawn)', '=', 6.89),
  ('CCCc1nn2ccc(C(=O)NC(CC)c3ccccc3)cc2c1Cc1ccc(-c2ccccc2C(=O)O)cc1 (stereo not drawn)', '=', 5.77),
  ('CCCc1[nH]c2ccc(C(=O)NC(CC)c3ccccc3)cc2c1Cc1ccc(-c2ccccc2C(=O)O)cc1 (stereo not drawn)', '<', 5.00),
  ('CCCc1nc2ccc(C(=O)NC(CC)c3ccccc3)cc2n1Cc1ccc(-c2ccccc2C(=O)O)cc1 (stereo not drawn)', '=', 6.54),
  ('CCCn1nc2ccc(C(=O)NC(CC)c3ccccc3)cc2c1Cc1ccc(-c2ccccc2C(=O)O)cc1 (stereo not drawn)', '=', 6.00),
  ('CCCc1nn2ccc(-c3nc4ccccc4n3CCC)cc2c1Cc1ccc(-c2ccccc2C(=O)O)cc1', '=', 7.07),
  ('CCCCn1c(-c2ccc3nn(CCC)c(Cc4ccc(-c5ccccc5C(=O)O)cc4)c3c2)nc2ccccc21', '=', 7.22);
